Documented DC50 across a set of molecules
Molecular target: STAT3 (Homo sapiens, UniProt P40763)
Sequence (P40763 whole entry): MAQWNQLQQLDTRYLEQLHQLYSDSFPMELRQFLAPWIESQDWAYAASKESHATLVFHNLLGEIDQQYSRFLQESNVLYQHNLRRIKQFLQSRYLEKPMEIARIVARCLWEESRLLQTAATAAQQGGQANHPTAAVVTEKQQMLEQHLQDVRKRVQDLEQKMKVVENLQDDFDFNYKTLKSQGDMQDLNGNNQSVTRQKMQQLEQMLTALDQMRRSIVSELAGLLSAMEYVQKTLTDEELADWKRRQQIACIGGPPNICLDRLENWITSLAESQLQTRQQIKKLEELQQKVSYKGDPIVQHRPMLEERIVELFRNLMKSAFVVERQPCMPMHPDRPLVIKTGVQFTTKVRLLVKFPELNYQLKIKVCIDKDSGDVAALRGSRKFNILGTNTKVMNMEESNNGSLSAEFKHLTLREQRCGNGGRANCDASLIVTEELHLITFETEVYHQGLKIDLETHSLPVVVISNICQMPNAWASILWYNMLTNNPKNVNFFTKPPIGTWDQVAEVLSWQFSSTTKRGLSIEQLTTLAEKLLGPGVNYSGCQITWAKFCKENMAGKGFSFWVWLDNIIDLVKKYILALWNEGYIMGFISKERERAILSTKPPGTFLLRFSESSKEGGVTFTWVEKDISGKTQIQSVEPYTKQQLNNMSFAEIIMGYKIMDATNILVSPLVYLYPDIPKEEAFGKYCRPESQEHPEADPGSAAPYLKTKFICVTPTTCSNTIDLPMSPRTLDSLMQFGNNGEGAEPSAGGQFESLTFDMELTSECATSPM
Assay: Quantitation of STAT3 degradation in A549 cells by Western blot
Type: cell-based
Set-up: expressed in transfected cells; host or cells: A549
Settings: read-out: A549 DC50, 24 hours, tested up to 30 μM or 10 μM

Look over these answered cases.
C/C(=C\C(=O)N[C@H]1CN(C(=O)CCCCCC#Cc2cccc3c2CN(C2CCC(=O)NC2=O)C3=O)CC[C@H]2CC[C@@H](C(=O)N[C@@H](CCC(N)=O)C(=O)NC(c3ccccc3)c3ccccc3)N2C1=O)c1ccc(CP(=O)(O)O)cc1 (stereo partly shown) [Compound I-89]: < 30 µM
C/C(=C\C(=O)N[C@H]1CCc2cccc3c2N(C1=O)[C@H](C(=O)NC(CCC(N)=O)[C@@H](C)OCc1ccc(CCCCOCC(=O)N[C@H](C(=O)N2C[C@H](O)C[C@H]2C(=O)NCc2ccc(-c4scnc4C)cc2)C(C)(C)C)cc1)C3)c1ccc(C(F)(F)P(=O)(OCOC(=O)C(C)(C)C)OCOC(=O)C(C)(C)C)cc1 (stereo partly shown) [Compound I-34]: < 30 µM
C[C@@H](OCc1ccc(CCCCc2ccc3c(c2)n(C)c(=O)n3C2CCC(=O)NC2=O)cc1)[C@H](CCC(N)=O)NC(=O)[C@@H]1Cc2cccc3c2N1C(=O)[C@@H](NC(=O)c1cc2cc(C(=O)P(=O)(O)O)ccc2[nH]1)CC3 (stereo partly shown) [Compound I-84]: > 30 µM

Prompt: What does the record list as DC50 for C/C(=C\C(=O)N[C@H]1CCc2cccc3c2N(C1=O)[C@H](C(=O)N[C@@H](CCC(N)=O)[C@@H](C)OCc1ccc(CCCOCCOCCOCCOCCCc2ccc4c(c2)n(C)c(=O)n4C2CCC(=O)NC2=O)cc1)C3)c1ccc(C(F)(F)P(=O)(OCOC(=O)C(C)(C)C)OCOC(=O)C(C)(C)C)cc1 (stereo partly shown) [Compound I-60] ?
Completion: > 30 µM

Prompt: Try this molecule too: C/C(=C\C(=O)N[C@H]1CN(C(=O)CCCCCCCc2ccc3c(c2)n(C)c(=O)n3C2CCC(=O)NC2=O)CC[C@H]2CC[C@@H](C(=O)N[C@@H](CCC(N)=O)C(=O)NC(c3ccccc3)c3ccccc3)N2C1=O)c1ccc(C(F)(F)P(=O)(O)O)cc1 (stereo partly shown) [Compound I-113]
Completion: > 30 µM

Prompt: Try this molecule too: CCCC[C@H](NC(=O)/C=C(\C)c1ccc(C(F)(F)P(=O)(OCOC(=O)C(C)(C)C)OCOC(=O)C(C)(C)C)cc1)C(=O)N1C[C@H]2C[C@H]2[C@H]1C(=O)N[C@@H](CCC(N)=O)[C@@H](C)OCc1ccc(CCCNC(=O)COCCOCCOCCCc2ccc3c(c2)n(C)c(=O)n3C2CCC(=O)NC2=O)cc1 (stereo partly shown) [Compound I-59]
Completion: > 30 µM

Cited source for all entries: patent US12077555B2
